Biological target: T1, scHLA-B27-mmH (engineered HLA-B*27 ectodomain in-line fusion protein) (human (HLA-B*2705, beta-2 …))
T1 construct: also called soluble HLA-B*27 fusion protein
Experiment: SPR (Biacore), mAb captured, 25 C, PBS pH 7.2
OBSERVABLE: t1/2 (min)
Your answer should be a plain number; it is taken to be in min.

[in] Quick one: t1/2 of H4H2534S (antibody, V domains shown) VH: EVQLVESGPGLVKPAQTLSLTCTVSGGSINSGGNYWSWIRQHPGKGLEWIGYIYYSGNTYYNPSLKSRVTISVDMSKNQFSLKLRSVTAADTAVYFCARDPRGITGTHHFDCWGQGTLVTVSS VL: EIVLTQSPGTLSLSPGERATLSCRTSQSVSSRYLAWYQQKPGQAPRLLIYDASSRATGIPDRFSGSGSGTDFTLTISRLEPEDFAVYYCQQFGPSLFTFGPGTKVDIK ?
[out] 16

Origin of measurements: patent US20130259876A1
